Test system: Staphylococcus aureus MSSA MB2865
Construct: MB2865 (MSSA)
Assay: microbe, parasite or virus in culture
Design: Broth microdilution MIC following CLSI protocol, bacterial growth inhibition, at Medina Foundation
Listed here are compounds together with their documented MIC.

Guide cases for MIC, answers given:
C[C@@H](O)[C@H]1C(=O)N2C(C(=O)O)=C(SCCNC=N)C[C@H]12 [Imipenem]	< 0.25 µg/mL
C[C@H]1[C@H](NC(=O)/C(=N\OC(C)(C)C(=O)O)c2csc(N)n2)C(=O)N1S(=O)(=O)O [Aztreonam]	> 128 µg/mL
O=C(O)c1cn(C2CC2)c2cc(N3CCNCC3)c(F)cc2c1=O [Ciprofloxacin]	< 0.25 µg/mL

Here's the next entry for you.
Given item C[C@@H](O)[C@H]1C(=O)N2C(C(=O)O)=C(S[C@@H]3CN[C@H](C(=O)N(C)C)C3)[C@H](C)[C@H]12 [Meropenem] , the value recorded as its MIC is < 0.25 µg/mL
